Data provenance: the kinase profiling compilation of Christmann-Franck et al. (2016)

biological target: STK24 (human) (UniProt Q9Y6E0); assay: radiometric filter-binding kinase assay, Kinase HotSpot; details: compound 0.5 µM; ATP 10 µM
Sequence (Q9Y6E0 whole entry, looked up): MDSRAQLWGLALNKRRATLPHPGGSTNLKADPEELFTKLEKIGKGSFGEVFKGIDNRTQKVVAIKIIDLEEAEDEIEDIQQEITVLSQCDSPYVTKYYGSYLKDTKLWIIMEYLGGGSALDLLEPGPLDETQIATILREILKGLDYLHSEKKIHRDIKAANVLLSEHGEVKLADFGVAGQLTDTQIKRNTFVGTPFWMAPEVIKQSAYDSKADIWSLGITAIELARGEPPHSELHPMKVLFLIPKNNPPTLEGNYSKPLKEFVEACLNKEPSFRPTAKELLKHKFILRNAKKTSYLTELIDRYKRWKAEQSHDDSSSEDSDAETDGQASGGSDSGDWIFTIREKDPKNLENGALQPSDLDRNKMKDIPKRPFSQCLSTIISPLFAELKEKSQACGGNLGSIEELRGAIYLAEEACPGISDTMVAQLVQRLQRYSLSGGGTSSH
Label Condition met when residual activity >= 90%; otherwise Condition not met.

Solved cases below.
compound | tested.on | assigned.label
COc1cc2ncc(-c3ccccc3)nc2cc1OC | STK24 (human) (UniProt Q9Y6E0) | Condition met
O=C1Nc2ccccc2/C1=C1\Nc2ccccc2\C1=N/O | STK24 (human) (UniProt Q9Y6E0) | Condition not met
CC(=O)O/N=C1\C(=C2\C(=O)Nc3cc(Br)ccc32)Nc2ccccc21 | STK24 (human) (UniProt Q9Y6E0) | Condition not met
O=C(Nc1cccc(Nc2cc(Nc3cccc(C(F)(F)F)c3)ncn2)c1)C1CC1 | STK24 (human) (UniProt Q9Y6E0) | Condition met
O=C1NC(=O)C(c2cn(CCCO)c3ncccc23)=C1c1cnccn1 | STK24 (human) (UniProt Q9Y6E0) | Condition not met
CC(C)[C@H](CO)Nc1nc(Nc2cc(N)cc(Cl)c2)c2ncn(C(C)C)c2n1 | STK24 (human) (UniProt Q9Y6E0) | Condition not met
CN([C@@H](Cc1ccc(OS(=O)(=O)c2cccc3cnccc23)cc1)C(=O)N1CCN(c2ccccc2)CC1)S(=O)(=O)c1cccc2cnccc12 | STK24 (human) (UniProt Q9Y6E0) | Condition met
Cc1nc2cc3nc(-c4cccs4)cnc3cc2n1C | STK24 (human) (UniProt Q9Y6E0) | Condition met

Q) Is reported residual activity greater than or equal to 90% here: "COc1ccc(CNC(=O)Nc2ncc([N+](=O)[O-])s2)cc1"
A) Condition met

* * *

molecular target: PRKCB1 (human) (UniProt P05771); assay: radiometric filter-binding kinase assay, Kinase HotSpot; details: compound 0.5 µM; ATP 10 µM
Sequence (P05771 whole entry, looked up): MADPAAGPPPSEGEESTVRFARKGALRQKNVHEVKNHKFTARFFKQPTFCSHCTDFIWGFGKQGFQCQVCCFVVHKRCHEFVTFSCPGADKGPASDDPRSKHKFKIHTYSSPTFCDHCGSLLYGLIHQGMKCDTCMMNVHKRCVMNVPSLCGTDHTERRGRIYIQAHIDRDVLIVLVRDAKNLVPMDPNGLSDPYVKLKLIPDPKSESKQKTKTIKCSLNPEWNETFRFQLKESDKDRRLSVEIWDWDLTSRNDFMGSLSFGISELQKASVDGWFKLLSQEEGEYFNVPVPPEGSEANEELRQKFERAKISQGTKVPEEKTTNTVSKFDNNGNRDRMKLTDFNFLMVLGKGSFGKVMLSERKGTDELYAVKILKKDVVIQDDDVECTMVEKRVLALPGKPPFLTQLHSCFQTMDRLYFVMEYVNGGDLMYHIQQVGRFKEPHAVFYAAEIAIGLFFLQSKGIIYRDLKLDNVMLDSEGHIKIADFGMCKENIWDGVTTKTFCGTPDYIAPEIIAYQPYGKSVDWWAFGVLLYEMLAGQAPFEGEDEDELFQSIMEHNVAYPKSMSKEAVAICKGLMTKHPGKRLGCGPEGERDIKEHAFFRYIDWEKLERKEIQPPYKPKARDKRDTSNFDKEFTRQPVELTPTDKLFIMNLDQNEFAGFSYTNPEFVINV
The reader will find reported residual activity values listed item by item below.
Provide the reading as a plain figure in %.

# annotated cases, reported residual activity shown
compound | result.number
COc1ccc(CNC(=O)Nc2ncc([N+](=O)[O-])s2)cc1 | 103
COc1cc2ncnc(N3CCN(C(=O)Nc4ccc(Oc5ccccc5)cc4)CC3)c2cc1OC | 94.5

Query compound follows.
Q) // lookup residual activity for "O=C1NC(=O)/C(=C\c2ccc3nccnc3c2)S1"
A) 96.9

* * *

target: WEE1 (human); assay: radiometric filter-binding kinase assay, Kinase HotSpot; details: compound 0.5 µM; ATP 10 µM
The reader will find reported residual activity values listed item by item below.
Write the quantity with the unit trailing the number.

# annotated cases, reported residual activity shown
compound | residual activity
CC(=O)O/N=C1\C(=C2\C(=O)Nc3cc(Br)ccc32)Nc2ccccc21 | 93.7%
O=C(Nc1cccc(Nc2cc(Nc3cccc(C(F)(F)F)c3)ncn2)c1)C1CC1 | 94%
COc1cc2ncnc(N3CCN(C(=O)Nc4ccc(Oc5ccccc5)cc4)CC3)c2cc1OC | 97.5%

Query compound follows.
Q) // lookup residual activity for "CN(C)C[C@H]1CCn2c(c(C3=C(c4cn(C)c5ccccc45)C(=O)NC3=O)c3ccccc32)C1"
A) 101%

* * *

The reader will find reported residual activity values listed item by item below.
target: EPHB2 (human); experiment: radiometric filter-binding kinase assay, Kinase HotSpot; conditions: compound 0.5 µM; ATP 10 µM
Provide the reading as a plain figure in %.

compound | residual activity, %
Cn1cnc2cc3c(Nc4cccc(Br)c4)ncnc3cc21 | 76.2
Cn1nc2c3c(cccc31)C(=O)c1ccccc1-2 | 104
O=C1NC(=O)C(c2c[nH]c3ccccc23)=C1c1c[nH]c2ccccc12 | 96.9
CN([C@@H](Cc1ccc(OS(=O)(=O)c2cccc3cnccc23)cc1)C(=O)N1CCN(c2ccccc2)CC1)S(=O)(=O)c1cccc2cnccc12 | 103
Cn1sc(=O)n(Cc2ccccc2)c1=O | 88.5

Q) // lookup residual activity for "CCn1cnc2c(Nc3cccc(Cl)c3)nc(N[C@@H]3CCCC[C@@H]3N)nc21"
A) 82.9

Q) // lookup residual activity for "CN(C)C[C@H]1CCn2c(c(C3=C(c4cn(C)c5ccccc45)C(=O)NC3=O)c3ccccc32)C1"
A) 110

Q) // lookup residual activity for O=C1Nc2ccccc2/C1=C1/Nc2ccccc2/C1=N\OCCC(O)CO (configuration not stated)
A) 75

Q) // lookup residual activity for "O=C(CCCc1ccc(-c2ccccc2F)cc1)Nc1ccc(O)cc1"
A) 98.5

Q) // lookup residual activity for "CC(C)c1nn(-c2c(Cl)cccc2Cl)c2nc(Cc3ccc(OCCO)cc3)nc(O)c12"
A) 92.5

Q) // lookup residual activity for "O=C1NC(=O)/C(=C\c2ccc3nccnc3c2)S1"
A) 94.7

Q) // lookup residual activity for "O=C(Nc1cccc(Nc2cc(Nc3cccc(C(F)(F)F)c3)ncn2)c1)C1CC1"
A) 88.6

Q) // lookup residual activity for "CC(C)[C@H](CO)Nc1nc(Nc2cc(N)cc(Cl)c2)c2ncn(C(C)C)c2n1"
A) 73.6

* * *

target: PTK2B (human); test: radiometric filter-binding kinase assay, Kinase HotSpot; details: compound 0.5 µM; ATP 10 µM
The reader will find reported residual activity values listed item by item below.
Provide the reading as a plain figure in %.

compound | residual activity, %
Cn1sc(=O)n(Cc2ccccc2)c1=O | 91

Q) // lookup residual activity for "O=C1NC(=O)C(c2c[nH]c3ccccc23)=C1c1c[nH]c2ccccc12"
A) 95.6

Q) // lookup residual activity for O=C1Nc2ccccc2/C1=C1/Nc2ccccc2/C1=N\OCCC(O)CO (centres undefined)
A) 30.5

Q) // lookup residual activity for "Nc1nccc(-c2c(-c3ccc(F)cc3)ncn2C2CCNCC2)n1"
A) 94.6

* * *

molecular target: UniProt Q5S007; assay: radiometric filter-binding kinase assay, Kinase HotSpot; conditions: compound 0.5 µM; ATP 10 µM
Sequence (Q5S007 whole entry, looked up): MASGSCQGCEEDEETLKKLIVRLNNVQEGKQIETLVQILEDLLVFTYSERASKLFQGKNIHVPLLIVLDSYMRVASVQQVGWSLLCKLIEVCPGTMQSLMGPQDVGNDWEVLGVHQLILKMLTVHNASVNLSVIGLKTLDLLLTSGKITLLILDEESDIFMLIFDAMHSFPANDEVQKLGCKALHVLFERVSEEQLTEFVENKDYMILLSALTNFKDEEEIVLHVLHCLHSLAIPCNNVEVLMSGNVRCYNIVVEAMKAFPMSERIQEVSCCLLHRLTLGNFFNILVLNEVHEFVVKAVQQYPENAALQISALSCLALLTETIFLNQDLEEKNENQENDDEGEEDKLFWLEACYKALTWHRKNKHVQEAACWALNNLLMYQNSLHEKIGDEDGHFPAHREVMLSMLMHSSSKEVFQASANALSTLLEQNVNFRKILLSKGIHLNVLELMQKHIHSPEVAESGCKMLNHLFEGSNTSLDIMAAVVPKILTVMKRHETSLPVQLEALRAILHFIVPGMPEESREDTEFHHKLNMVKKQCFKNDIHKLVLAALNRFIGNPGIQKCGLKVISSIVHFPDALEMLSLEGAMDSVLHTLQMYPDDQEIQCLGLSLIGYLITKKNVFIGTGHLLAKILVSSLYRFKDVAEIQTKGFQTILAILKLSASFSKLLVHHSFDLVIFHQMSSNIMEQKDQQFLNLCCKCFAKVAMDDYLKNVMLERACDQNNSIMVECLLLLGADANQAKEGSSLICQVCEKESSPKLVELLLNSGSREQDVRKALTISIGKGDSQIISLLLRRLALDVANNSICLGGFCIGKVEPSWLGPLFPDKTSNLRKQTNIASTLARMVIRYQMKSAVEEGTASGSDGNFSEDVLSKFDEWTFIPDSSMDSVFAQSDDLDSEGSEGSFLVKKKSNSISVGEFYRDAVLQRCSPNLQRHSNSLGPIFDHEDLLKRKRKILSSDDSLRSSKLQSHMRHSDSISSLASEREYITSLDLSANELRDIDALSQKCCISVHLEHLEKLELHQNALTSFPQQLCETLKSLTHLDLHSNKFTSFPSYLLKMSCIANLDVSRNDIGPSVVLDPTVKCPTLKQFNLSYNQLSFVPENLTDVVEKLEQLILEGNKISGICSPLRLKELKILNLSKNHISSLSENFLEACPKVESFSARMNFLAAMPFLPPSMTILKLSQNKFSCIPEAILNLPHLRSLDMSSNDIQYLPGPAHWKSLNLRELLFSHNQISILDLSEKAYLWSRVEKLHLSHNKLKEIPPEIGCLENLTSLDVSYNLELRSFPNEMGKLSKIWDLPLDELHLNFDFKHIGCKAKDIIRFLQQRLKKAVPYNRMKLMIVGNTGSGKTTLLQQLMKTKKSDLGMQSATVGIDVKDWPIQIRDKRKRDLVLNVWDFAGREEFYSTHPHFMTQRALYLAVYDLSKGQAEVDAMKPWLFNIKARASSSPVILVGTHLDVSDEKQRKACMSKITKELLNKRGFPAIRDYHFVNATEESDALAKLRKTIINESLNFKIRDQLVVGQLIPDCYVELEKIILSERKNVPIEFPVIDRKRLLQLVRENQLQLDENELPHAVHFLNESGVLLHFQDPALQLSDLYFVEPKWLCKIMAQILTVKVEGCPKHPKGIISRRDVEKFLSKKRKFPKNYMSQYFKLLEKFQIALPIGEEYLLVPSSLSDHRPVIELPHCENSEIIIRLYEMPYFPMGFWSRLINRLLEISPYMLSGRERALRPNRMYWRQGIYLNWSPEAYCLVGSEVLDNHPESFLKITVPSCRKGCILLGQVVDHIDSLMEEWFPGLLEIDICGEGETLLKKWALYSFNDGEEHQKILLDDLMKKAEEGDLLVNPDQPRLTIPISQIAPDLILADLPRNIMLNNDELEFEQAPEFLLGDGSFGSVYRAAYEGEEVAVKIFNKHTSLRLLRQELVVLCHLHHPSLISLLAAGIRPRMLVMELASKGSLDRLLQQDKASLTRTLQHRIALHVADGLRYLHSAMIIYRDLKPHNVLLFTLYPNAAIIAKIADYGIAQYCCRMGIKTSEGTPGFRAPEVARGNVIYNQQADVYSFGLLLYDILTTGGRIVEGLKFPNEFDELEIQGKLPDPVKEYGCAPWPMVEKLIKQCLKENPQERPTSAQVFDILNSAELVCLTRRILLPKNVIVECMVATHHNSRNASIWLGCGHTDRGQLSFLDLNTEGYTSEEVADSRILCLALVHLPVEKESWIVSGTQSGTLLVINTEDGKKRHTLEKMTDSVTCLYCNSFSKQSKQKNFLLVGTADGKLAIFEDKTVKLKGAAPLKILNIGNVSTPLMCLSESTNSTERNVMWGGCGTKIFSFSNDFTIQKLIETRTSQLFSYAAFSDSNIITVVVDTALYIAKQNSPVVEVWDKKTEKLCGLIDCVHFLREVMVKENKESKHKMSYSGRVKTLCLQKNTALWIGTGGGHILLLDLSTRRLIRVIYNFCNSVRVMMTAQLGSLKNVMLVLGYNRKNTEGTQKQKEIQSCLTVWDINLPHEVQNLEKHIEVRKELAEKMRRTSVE
metric: residual activity (%)
Provide the reading as a plain figure in %.

# annotated cases, reported residual activity shown
molecule | display.unit | result.number
O=C1NC(=O)/C(=C\c2ccc3nccnc3c2)S1 | % | 96
Nc1nnc2[nH]c3ccccc3nc1-2 | % | 90.5
CC(=O)O/N=C1\C(=C2\C(=O)Nc3cc(Br)ccc32)Nc2ccccc21 | % | 87.6
CN(C)C[C@H]1CCn2c(c(C3=C(c4cn(C)c5ccccc45)C(=O)NC3=O)c3ccccc32)C1 | % | 93.1
O=C1Nc2ccccc2/C1=C1/Nc2ccccc2/C1=N\OCCC(O)CO (configuration not stated) | % | 81.2
CCN(CC)CCCCN1c2ccccc2Oc2ccc(Cl)cc21 | % | 115
CC(C)c1nn(-c2c(Cl)cccc2Cl)c2nc(Cc3ccc(OCCO)cc3)nc(O)c12 | % | 109
COc1cc2ncc(-c3ccccc3)nc2cc1OC | % | 84.9
Cn1nc2c3c(cccc31)C(=O)c1ccccc1-2 | % | 55.9
O=C(CCCc1ccc(-c2ccccc2F)cc1)Nc1ccc(O)cc1 | % | 98

Q) Give residual activity (UniProt Q5S007) of the following molecule: "O=C1NC(=O)C(c2c[nH]c3ccccc23)=C1c1c[nH]c2ccccc12"
A) 77.5

Q) Give residual activity (UniProt Q5S007) of the following molecule: "COc1ccc(OC)c2c(=S)c3ccccc3[nH]c12"
A) 98

Q) Give residual activity (UniProt Q5S007) of the following molecule: "COc1cc2ncnc(N3CCN(C(=O)Nc4ccc(Oc5ccccc5)cc4)CC3)c2cc1OC"
A) 98.3

Q) Give residual activity (UniProt Q5S007) of the following molecule: "Cn1sc(=O)n(Cc2ccccc2)c1=O"
A) 91.9

Q) Give residual activity (UniProt Q5S007) of the following molecule: "O=C1NC(=O)C(c2cn(CCCO)c3ncccc23)=C1c1cnccn1"
A) 90

Q) Give residual activity (UniProt Q5S007) of the following molecule: "Nc1nccc(-c2c(-c3ccc(F)cc3)ncn2C2CCNCC2)n1"
A) 99.9

Q) Give residual activity (UniProt Q5S007) of the following molecule: "O=C(Nc1cccc(Nc2cc(Nc3cccc(C(F)(F)F)c3)ncn2)c1)C1CC1"
A) 95.6

Q) Give residual activity (UniProt Q5S007) of the following molecule: "O=C1Nc2ccccc2/C1=C1\Nc2ccccc2\C1=N/O"
A) 91.6

Q) Give residual activity (UniProt Q5S007) of the following molecule: "O=C(O)/C=C/c1cc(Br)c(Br)c(Br)c1Br"
A) 87.6

Q) Give residual activity (UniProt Q5S007) of the following molecule: "Oc1ccc(Nc2nc(-c3ccc(Cl)cc3)cs2)cc1"
A) 98.7

Q) Give residual activity (UniProt Q5S007) of the following molecule: "CN([C@@H](Cc1ccc(OS(=O)(=O)c2cccc3cnccc23)cc1)C(=O)N1CCN(c2ccccc2)CC1)S(=O)(=O)c1cccc2cnccc12"
A) 97.1

Q) Give residual activity (UniProt Q5S007) of the following molecule: "CC(C)[C@H](CO)Nc1nc(Nc2cc(N)cc(Cl)c2)c2ncn(C(C)C)c2n1"
A) 101
